- Measured On: T1, human CD81 mutant V135L (human, UniProt P60033 1-236, limits assumed)
- T1 construct: as m30; not shown: C-terminal V5 and 6xHis tags
- T1 sequence: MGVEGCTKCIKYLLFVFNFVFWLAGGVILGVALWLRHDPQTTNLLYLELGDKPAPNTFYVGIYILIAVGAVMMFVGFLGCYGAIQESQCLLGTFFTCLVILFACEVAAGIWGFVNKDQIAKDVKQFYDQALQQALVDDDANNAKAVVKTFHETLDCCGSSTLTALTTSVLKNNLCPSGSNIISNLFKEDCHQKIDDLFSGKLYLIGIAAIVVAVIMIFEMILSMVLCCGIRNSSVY
- Assay Text: ELISA
Measure: relative binding affinity

# annotated cases, reported relative binding affinity shown
1. 002-A07 N113G (antibody, human IgG4 S228P, lambda, V domains shown, IgG4 S228P; glycosylation site mutant of 002-A07 VL) VH: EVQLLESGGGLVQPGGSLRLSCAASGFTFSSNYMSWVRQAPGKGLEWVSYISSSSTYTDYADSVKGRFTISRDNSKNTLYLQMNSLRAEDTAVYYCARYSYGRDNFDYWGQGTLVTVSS VL: QSVLTQPPSASGTPGQRVTISCTGSTSNIGAGYDTHWYQQLPGTAPKLLIYGNSNRPSGVPDRFSGSKSGTSASLAISGLRSEDEADYYCQSYDTGLSVWVFGGGTKLTVLG : < 20%
2. 002-B05 (antibody, human IgG4 S228P, lambda, V domains shown, IgG4 S228P) VH: EVQLLESGGGLVQPGGSLRLSCAASGFTFSSNYMSWVRQAPGKGLEWVSYISSSSTYTDYADSVKGRFTISRDNSKNTLYLQMNSLRAEDTAVYYCARYSYSRDNFDYWGQGTLVTVSS VL: QSVLTQPPSASGTPGQRVTISCTGSTSNIGAGYGTHWYQRLPGTAPKLLIYGNSNRPSGVPDRFSGSKSGTSASLAISGLRSEDEADYYCQSYDTNLSVWVFGGGTKLTVLG : < 20%

Okay, next one:
Problem: Using the record for 002-A07 S115A (antibody, human IgG4 S228P, lambda, V domains shown, IgG4 S228P; glycosylation site mutant of 002-A07 VL) VH: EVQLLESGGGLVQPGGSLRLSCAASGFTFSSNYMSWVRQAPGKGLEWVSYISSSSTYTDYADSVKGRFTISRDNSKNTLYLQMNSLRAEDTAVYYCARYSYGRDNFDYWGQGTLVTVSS VL: QSVLTQPPSASGTPGQRVTISCTGSTSNIGAGYDTHWYQQLPGTAPKLLIYGNSNRPSGVPDRFSGSKSGTSASLAISGLRSEDEADYYCQSYDTNLAVWVFGGGTKLTVLG , report its relative binding affinity.
Result: < 20%
